- protocol: Plasma levels of AF267B and AF292 in dogs after AF267B administration (toxicokinetic, LC-MS)
- Type: in vivo, Beagle dogs
- conditionsUsed: both sexes, beagle, dog, plasma, po, 6 mg/kg; read-out: plasma half life
recordedMetric: half-life

CC[C@@H]1SC2(CCN(C)CC2)NC1=O [AF267B]: 1 to 2 h

Attention now turns to another entry.
Input: Respond only with half-life recorded for CC[C@@H]1SC2(CCNCC2)NC1=O [AF292]
Output: 9 to 20 h

###

- protocol: Pharmacokinetic study in rats
- Format: in vivo
- conditionsUsed: rat, plasma, po; Rats, 5 mg/kg
recordedMetric: MRT (h)
Field format: number, assumed h, no unit text.

Input: Give MRT for the following compound: CC[C@@H]1SC2(CCN(C)CC2)NC1=O [AF267B]
Output: 1

###

- protocol: Pharmacokinetic study in dogs
- Type: in vivo
- conditionsUsed: beagle, dog, plasma, oral; Dogs; extrapolated for 5 mg/kg
recordedMetric: AUC(0-inf) (ng·h/mL)
Report the value in ng·h/mL with no unit label.

Input: // Input: CC[C@@H]1SC2(CCN(C)CC2)NC1=O [AF267B] . Output its AUC(0-inf) only.
Output: 2760

###

- protocol: Plasma levels of AF267B and AF292 in dogs after AF267B administration (toxicokinetic, LC-MS)
- Assay type: in vivo, Beagle dogs
- conditionsUsed: female, beagle, dog, plasma, po; F(13w)
recordedMetric: MRT at 13 weeks

CC[C@@H]1SC2(CCN(C)CC2)NC1=O [AF267B]: 3.6 to 5.2 h

// moving on: another record for MRT at 13 weeks
Input: Consider the molecule CC[C@@H]1SC2(CCNCC2)NC1=O [AF292] and give its recorded MRT at 13 weeks.
Output: 5.1 to 33.7 h

###

- protocol: Plasma levels of AF267B and AF292 in dogs after AF267B administration (toxicokinetic, LC-MS)
- Assay type: in vivo, Beagle dogs
- conditionsUsed: both sexes, beagle, dog, plasma, po
recordedMetric: AUC(0-t)

CC[C@@H]1SC2(CCNCC2)NC1=O [AF292]: 616 to 2450 ng·h/mL

Okay, now this compound:
Input: Respond only with AUC(0-t) recorded for CC[C@@H]1SC2(CCN(C)CC2)NC1=O [AF267B]
Output: 712 to 3950 ng·h/mL

###

- protocol: Ex vivo brain penetration in mice (GC and binding)
- conditionsUsed: mouse, in vivo, 100 μmole/kg
recordedMetric: MRT
Report the figure along with its unit, number first.

Input: Hello, please tell me recorded MRT for this one: CC1=NCC2(CCN(C)CC2)S1 [AF150(S)]
Output: 50 min

###

- protocol: Plasma levels of AF267B and AF292 in dogs after AF267B administration (toxicokinetic, LC-MS)
- Format: in vivo, Beagle dogs
- conditionsUsed: female, beagle, dog, plasma, po, 6 mg/kg, F(13w), AF267B 1.5, 3, 6 mg/kg p.o.
AUC(0-inf) values for the compounds below.

CC[C@@H]1SC2(CCN(C)CC2)NC1=O [AF267B]: 1030 to 4160 ng·h/mL

Input: Could you please provide reported AUC(0-inf) for CC[C@@H]1SC2(CCNCC2)NC1=O [AF292] ? Thanks!
Output: 1870 to 12700 ng·h/mL

###

- protocol: Plasma levels of AF267B and AF292 in dogs after AF267B administration (toxicokinetic, LC-MS)
- Type: in vivo, Beagle dogs
- conditionsUsed: both sexes, beagle, dog, plasma, po
recordedMetric: Cmax

CC[C@@H]1SC2(CCN(C)CC2)NC1=O [AF267B]: 162 to 1350 ng/mL

Here's the next entry for you.
Input: Tell me its Cmax given CC[C@@H]1SC2(CCNCC2)NC1=O as the entry.
Output: 136 to 555 ng/mL
